system: HepG2; test: Antiproliferative activity against human HepG2 cells after 72 hrs by MTT assay; format: functional, cell-based; details: HepG2, 72 h

# inputSmiles, unitAnnotation, IC50
rows = [
    ("O=C1C=C(N2CCN(c3ccccc3)CC2)C(=O)c2c(O)cccc21", "µM", 5.4),
    ("O=C1C=C(N2CCN(c3ccccc3Cl)CC2)C(=O)c2c(O)cccc21", "µM", 7.7),
    ("O=C1C=C(N2CCN(c3ccccc3Cl)CC2)C(=O)c2ccccc21", "µM", 11.1),
    ("O=C1C=C(N2CCN(c3ccccc3)CC2)C(=O)c2c(O)ccc(O)c21", "µM", 5.4),
    ("Cc1ccccc1C1CCN(C2=CC(=O)c3cccc(O)c3C2=O)CC1", "µM", 16.6),
    ("O=C1C=C(N2CCC(c3ccc(Cl)cc3)CC2)C(=O)c2c(O)cccc21", "µM", 5.4),
    ("Cc1ccccc1N1CCN(C2=CC(=O)c3cccc(O)c3C2=O)CC1", "µM", 10.3),
    ("COc1ccccc1N1CCN(C2=CC(=O)c3cccc(O)c3C2=O)CC1", "µM", 3.9),
    ("O=C1C=C(N2CCC(c3ccccc3)CC2)C(=O)c2c(O)cccc21", "µM", 9.7),
]
